# Lookup of reported composite z-score keyed by entry
# MEASUREMENT TARGET: Dihydroorotate dehydrogenase (quinone), mitochondrial (Plasmodium falciparum (isolate 3D7))
# TEST SUMMARY: inhibition of P. falciparum DHODH – biochemical, C-terminal His tag, absorbance 600 nm, primary screen (AID 1175);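 note: recombinant parasite enzyme with a five histidine tag at its C terminus; test concentration not given here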
# EXPERIMENTAL CONDITIONS: PfDHODH enzyme, DCIP absorbance 600 nm; higher = more signal, called active from +8 up or from −8 down
Output spec: single numeric token, no unit.

Previously resolved entries follow.
COMPOUND: CN(C)C(=O)[C@@]1(CCC(=O)OC(C)(C)C)N=C(c2ccc(OCCCO)cc2)O[C@H]1c1ccccc1N=[N+]=[N-]
ASSAY VALUE: 0.645

COMPOUND: COc1ccc(C(=O)Nc2ccc3c(c2)[C@]2(O[C@@H](CCO)[C@H]([Si](C)(C)c4ccc(OC)cc4)[C@H]2C)C(=O)N3Cc2ccccc2)cc1
ASSAY VALUE: -0.454

## Input Fill in: composite z-score of COC(=O)c1ccc(OC)c(/C=C\CC(CCc2ccccc2)OC(=O)c2ccncc2)c1 (configuration not stated) is ___
## Output -3.1

## Input Fill in: composite z-score of `COc1ccc(CCNC(=O)[C@@H]2c3ccccc3C(=O)N(Cc3ccccc3)[C@H]2c2ccc(CO)cc2)cc1` is ___
## Output -0.489

## Input Fill in: composite z-score of CC[C@@H]1[C@@H]2C3C(=O)N(CC)C(=O)C3CC(=O)[C@@H]2[C@H](c2ccc(C)cc2)N1S(=O)(=O)c1ccc(C)cc1 (some centres not stated) is ___
## Output -0.415

## Input Fill in: composite z-score of `COC(=O)[C@]1(Cc2ccccc2N=[N+]=[N-])N=C(c2ccc(OCCCO)cc2)O[C@@H]1c1ccccc1` is ___
## Output 0.106

## Input Fill in: composite z-score of `COC(=O)[C@@]1(Cc2ccc(OC)cc2)[C@H]2c3cc(C(=O)N4CCCC4)n(Cc4ccc(C)o4)c3C[C@H]2CN1C(=O)c1ccccc1` is ___
## Output -1.53

Value source: PubChem BioAssay
